Test system: Mus musculus
Assay: Compound was evaluated for the percent increase in life span against M5076 sarcoma in mice at a sc dose of 100 mg/kg/day.
Format: functional
Conditions: route subcutaneous
Entry flag: class 1 if ILS at 100 mg/kg/day reaches 20%; class 0 if it does not.

A selection of reference data follows.
compound | class_assignment
CCCCCCCCCCCCCC(=O)OCC(COP(=O)([O-])OC[C@H]1O[C@@H](n2ccc(N)nc2=O)[C@@H](C#N)[C@@H]1O)OC(=O)CCCCCCCCCCCCC.[Na+] (stereo partly specified) | class 0
CCCCCCCC/C=C\CCCCCCCC(=O)OCC(COP(=O)([O-])OC[C@H]1O[C@@H](n2ccc(N)nc2=O)[C@@H](C#N)[C@@H]1O)OC(=O)CCCCCCC/C=C\CCCCCCCC.[Na+] (stereo partly specified) | class 0
N#C[C@H]1[C@H](O)[C@@H](CO)O[C@H]1n1ccc(N)nc1=O | class 0
CCCCCCCCCCCCCCCC(=O)OCC(COP(=O)([O-])OC[C@H]1O[C@@H](n2ccc(N)nc2=O)[C@@H](C#N)[C@@H]1O)OC(=O)CCCCCCCCCCCCCCC.[Na+] (stereo partly specified) | class 1

*Q* Exam item: decide whether the reported ILS at 100 mg/kg/day for CCCCC/C=C\C/C=C\CCCCCCCC(=O)OCC(COP(=O)([O-])OC[C@H]1O[C@@H](n2ccc(N)nc2=O)[C@@H](C#N)[C@@H]1O)OC(=O)CCCCCCC/C=C\C/C=C\CCCCC.[Na+] (stereo partly specified) is at least 20%.
*A* class 0
